# Test target: AGP A variant (Homo sapiens)
# Assay info: Screening: S-disopyramide binding with drug at 100-fold concentration
# Settings: drug at 100-fold concentration of marker
Readout name: Inhibition of binding of S-disopyramide

[[record]]
molecule = "C=C[C@H]1C[N@@]2CC[C@H]1C[C@H]2[C@H](O)c1ccnc2ccc(OC)cc12"
test_target = "AGP A variant (Homo sapiens)"
readout_name = "Inhibition of binding of S-disopyramide"
measured = "markedly inhibited"

[[record]]
molecule = "COC(=O)C1=C(C)NC(C)=C(C(=O)OCCN(C)Cc2ccccc2)C1c1cccc([N+](=O)[O-])c1 (stereo not drawn)"
test_target = "AGP A variant (Homo sapiens)"
readout_name = "Inhibition of binding of S-disopyramide"
measured = "markedly inhibited"

[[record]]
molecule = "CSc1ccc2c(c1)N(CCC1CCCCN1C)c1ccccc1S2 (stereo not drawn)"
test_target = "AGP A variant (Homo sapiens)"
readout_name = "Inhibition of binding of S-disopyramide"
measured = "markedly inhibited"

[[record]]
molecule = "CC/C(=C(\\c1ccccc1)c1ccc(OCCN(C)C)cc1)c1ccccc1"
test_target = "AGP A variant (Homo sapiens)"
readout_name = "Inhibition of binding of S-disopyramide"
measured = "specifically inhibited"

[[record]]
molecule = "Clc1ccc(COC(Cn2ccnc2)c2ccc(Cl)cc2Cl)c(Cl)c1 (stereo not drawn)"
test_target = "AGP A variant (Homo sapiens)"
readout_name = "Inhibition of binding of S-disopyramide"
measured = "markedly inhibited"


Identify measured Inhibition of binding of S-disopyramide associated with CN(C)CCC=C1c2ccccc2CCc2ccccc21 specifically inhibited

Identify measured Inhibition of binding of S-disopyramide associated with COc1ccc(Cl)cc1C(=O)NCCc1ccc(S(=O)(=O)NC(=O)NC2CCCCC2)cc1 [Glibenclamide] specifically inhibited

Identify measured Inhibition of binding of S-disopyramide associated with CC(C)NCC(O)COc1cccc2ccccc12 (stereo not drawn) markedly inhibited

Identify measured Inhibition of binding of S-disopyramide associated with CCC(C)(C)C(=O)O[C@H]1C[C@@H](C)C=C2C=C[C@H](C)[C@H](CC[C@@H]3C[C@@H](O)CC(=O)O3)[C@H]21 markedly inhibited

Identify measured Inhibition of binding of S-disopyramide associated with COc1ccc([C@@H]2Sc3ccccc3N(CCN(C)C)C(=O)[C@@H]2OC(C)=O)cc1 specifically inhibited

Identify measured Inhibition of binding of S-disopyramide associated with CC[C@H]1OC(=O)[C@H](C)[C@@H](O[C@H]2C[C@@](C)(OC)[C@@H](O)[C@H](C)O2)[C@H](C)[C@@H](O[C@@H]2O[C@H](C)C[C@H](N(C)C)[C@H]2O)[C@](C)(O)C[C@@H](C)C(=O)[C@H](C)[C@@H](O)[C@]1(C)O markedly inhibited

Identify measured Inhibition of binding of S-disopyramide associated with CN(C)C(=O)C(CCN1CCC(O)(c2ccc(Cl)cc2)CC1)(c1ccccc1)c1ccccc1 [Loperamide] specifically inhibited

---

# Test target: AGP F1/S variant mixture (Homo sapiens, UniProt P02763)
# Assay info: Screening: S-warfarin binding with drug at 100-fold concentration
# Settings: drug at 100-fold concentration of marker
Readout name: Inhibition of binding of warfarin

[[record]]
compound = "CC(C)NCC(O)COc1cccc2ccccc12 (stereo not drawn)"
readout_name = "Inhibition of binding of warfarin"
measured = "markedly inhibited"

[[record]]
compound = "CC[C@H]1OC(=O)[C@H](C)[C@@H](O[C@H]2C[C@@](C)(OC)[C@@H](O)[C@H](C)O2)[C@H](C)[C@@H](O[C@@H]2O[C@H](C)C[C@H](N(C)C)[C@H]2O)[C@](C)(O)C[C@@H](C)C(=O)[C@H](C)[C@@H](O)[C@]1(C)O"
readout_name = "Inhibition of binding of warfarin"
measured = "markedly inhibited"

[[record]]
compound = "COC(=O)C1=C(C)NC(C)=C(C(=O)OCCN(C)Cc2ccccc2)C1c1cccc([N+](=O)[O-])c1 (stereo not drawn)"
readout_name = "Inhibition of binding of warfarin"
measured = "markedly inhibited"

